- system_under_test: HLA-A*02:01 (Homo sapiens, UniProt P04439, D140Y/D185E/D98H/E176V/E277Q/G131W/G231S/I119V/I121R/I166T/I218V/L300P/L318F/N151K/N90K/P208A/P217A/Q86G/Q94H/R138H/R169H/T345S)
- assay_explanation: MHC binding assay: UV-ligand exchange with β2m ELISA
- condition_description: binding to HLA-A*02:01, UV-ligand exchange
quantity_kind: Peptide Exchange (peptide exchange yield)

# seq_text, readout_value
measured = [
    ("KAFPFYNTV (listed as Homo sapiens) [SEQ ID NO: 12, HLA-A*02 peptide, source gene NAIP]", "“++” (≥20% = ++)"),
    ("ILFDVVVFL (listed as Homo sapiens) [SEQ ID NO: 25, HLA-A*02 peptide, source gene C4orf3]", "“++” (≥20% = ++)"),
    ("ALEEQLHQV (listed as Homo sapiens) [SEQ ID NO: 19, HLA-A*02 peptide, source genes KRT25, KRT28, KRT27]", "“++” (≥20% = ++)"),
]
